# System: HTB-68 (NRAS mutation)
# Assay comment: MTT cell viability assay, HTB-68 melanoma
# Assay type: cell-based, human
# Run conditions: Homo sapiens, 24 h
Readout kind: IC50

Consider the worked cases shown below.
C=C1C(=O)OC2CC3=C[C@@H](C/C(C)=C/C(O)[C@H]12)OC3=O (stereo partly drawn) [DETD-3] :: > 10 µM
C=C1C(=O)OC2CC3=C[C@@H](C/C(C)=C/C(OC(=O)/C=C/c4cccc(OCC)c4)[C@H]12)OC3=O (stereo partly drawn) [DETD-50] :: > 10 µM

Dear reader, for each entry below, please note its IC50.
1. C=C1C(=O)OC2CC3=C[C@@H](C/C(C)=C/C(OC(=O)C(CC)CCCC)[C@H]12)OC3=O (stereo partly drawn) [DETD-21]
2. C=C(C)C(=O)O[C@H]1CC2=C[C@@H](C/C(C)=C/[C@H]3OC(=O)[C@@H](CN(C)C)[C@H]13)OC2=O [DETD-1]
3. C=C1C(=O)OC2CC3=C[C@@H](C/C(C)=C/C(OC(=O)C4CC4)[C@H]12)OC3=O (stereo partly drawn) [DETD-36]
4. C=C1C(=O)OC2CC3=C[C@@H](C/C(C)=C/[C@H](OC(=O)Cc4cccc5ccccc45)[C@H]12)OC3=O (stereo partly drawn) [DETD-62]

1: > 10 µM; 2: > 10 µM; 3: > 10 µM; 4: 9 µM
